Provide the recorded cytotoxicity at 10 µM for the entries that follow.
Test: Toxicity liver stage against HepG2, at 10uM
Format: cell-based
Design: test concentration 10 uM, cell line HepG2-A16-CD81EGFP
Details: human, HepG2-A16-CD81EGFP cells; read-out: INHIBITION
Give bare numbers, in %.

These recorded examples may help you get a feel for the data.
{"COMPOUND": "CC(=O)Nc1ccc(CNc2cccc(OCCF)c2)cc1", "cytotoxicity at 10 µM, %": -5.35}
{"COMPOUND": "CC(C)c1noc(CCNC(=O)C2COc3ccccc3C2)n1 (stereo unspecified)", "cytotoxicity at 10 µM, %": -1.24}
{"COMPOUND": "CC(c1cccc(-c2cn(Cc3ccoc3)nn2)c1)N(C)C (stereo unspecified)", "cytotoxicity at 10 µM, %": 1.35}
{"COMPOUND": "CN(CC(=O)NCC(F)(F)F)Cc1cccc2c1OCCO2", "cytotoxicity at 10 µM, %": -18.7}
{"COMPOUND": "CCNC(=O)[C@@H]1CCCN1[C@@H](C(=O)NC)C1CC1", "cytotoxicity at 10 µM, %": -2.39}

API: the following record is the query input.
Qu. Any idea what its cytotoxicity at 10 µM is? The compound is Cc1ncsc1CN1C[C@@H]2COC[C@]2(C(=O)NCC2CC2)C1
Ans. 5.38

###

Provide the recorded cytotoxicity at 10 µM for the entries that follow.
Assay: Toxicity liver stage against HepG2, at 10uM
Type: cell-based
Parameters: test concentration 10 uM, cell line HepG2-A16-CD81EGFP
Settings: human, HepG2-A16-CD81EGFP cells; read-out: INHIBITION
Numbers only, in %.

These recorded examples may help you get a feel for the data.
{"COMPOUND": "COCc1nc(CN2CCOC(CN(C)c3cccnn3)C2)cs1 (configuration not stated)", "cytotoxicity at 10 µM, %": 1.55}
{"COMPOUND": "CCc1cc(N(C)Cc2noc(CC(C)C)n2)ncn1", "cytotoxicity at 10 µM, %": 7.18}
{"COMPOUND": "CC(=O)NCC(=O)N1C[C@@H](C)[C@@]2(CCN(c3ccsc3)C2=O)C1", "cytotoxicity at 10 µM, %": -74.7}
{"COMPOUND": "COc1ccc(CNCc2ccnc(N3CCCCC3)c2)cc1OC", "cytotoxicity at 10 µM, %": 0.222}
{"COMPOUND": "COc1ccc(C(=O)Nc2ccc3ncn(C(C)C)c(=O)c3c2)cc1", "cytotoxicity at 10 µM, %": 4.04}

Hi! Can you tell me cytotoxicity at 10 µM for each of these compounds?
1. CNS(=O)(=O)CCNc1cc(C)nc2cc(C)nn12
2. CN(C)C(=O)NC1COC2(CCN(Cc3ccc(N(C)C)cc3)CC2)C1 (configuration not stated)
3. O=C1CC2(CCCNC2)C(=O)N1Cc1ccccc1 (configuration not stated)
4. Cc1nn(C2CCCCC2)c2nc(C(C)(C)CN3CCOCC3)[nH]c12
5. COc1ncccc1C(=O)NCC1Cc2ccccc2O1 (configuration not stated)

Ans.
1. 6.95
2. -77
3. 12.1
4. -3.64
5. -13.4

Hi! Can you tell me cytotoxicity at 10 µM for each of these compounds?
1. O=C(O)c1c(-c2cncnc2)ncc2c1CCN(Cc1ccco1)C2
2. Cc1cc(NCC(=O)N(C)CC(F)(F)F)c(C(N)=O)cc1F

Ans.
[-2.69, -2.91]

###

Assay: Toxicity liver stage against HepG2, at 10uM
Assay type: cell-based
Set-up: test concentration 10 uM, cell line HepG2-A16-CD81EGFP
Conditions: human, HepG2-A16-CD81EGFP cells; read-out: INHIBITION
OBSERVABLE: cytotoxicity at 10 µM

These recorded examples may help you get a feel for the data.
{"COMPOUND": "CC(C)c1cc(C(=O)N(c2ccc(F)cn2)C2CCOCC2)nn1C", "REPORTED MEASUREMENT": "-4.65%"}
{"COMPOUND": "O=C1CCC2(CCN(c3ncc(F)cn3)CC2)N1Cc1ccncc1", "REPORTED MEASUREMENT": "5.02%"}
{"COMPOUND": "CCc1nccc(CN2CCC(CNC(=O)c3occc3C)C2)n1 (centres undefined)", "REPORTED MEASUREMENT": "6.95%"}
{"COMPOUND": "CC(C)n1ncc2c1NC(=O)C(C#N)C21CCCCC1 (centres undefined)", "REPORTED MEASUREMENT": "-0.47%"}
{"COMPOUND": "O=C(CCc1ccncc1)NCCOc1ncc(Cl)cc1Cl", "REPORTED MEASUREMENT": "-2.56%"}
{"COMPOUND": "Cc1ccc(NC2CCN(C(=O)c3ccnc(N(C)C)c3)CC2)nn1", "REPORTED MEASUREMENT": "3.97%"}
{"COMPOUND": "O=C(c1cscn1)N1CC[C@@H]2[C@@H]1CCN2CC1CCOCC1", "REPORTED MEASUREMENT": "5.3%"}
{"COMPOUND": "CNc1ncc(-c2ccnn2C2CCN(C(C)=O)CC2)cn1", "REPORTED MEASUREMENT": "0.581%"}

Hi! Can you tell me cytotoxicity at 10 µM for each of these compounds?
1. CN1CCN(C)C(CNC(=O)N(C)Cc2ccc(Cl)c(F)c2)C1 (centres undefined)
2. Cc1nc(NC(=O)NC(CS(C)(=O)=O)c2ccccc2)sc1C (centres undefined)
3. COc1ccc(C(=O)N(C)Cc2nnc3ccccn23)c(OC)c1
4. Cc1[nH]ncc1CCCNC(=O)N1CCOC(C)C1 (centres undefined)
5. CSc1cccc(CN2CCn3nc(CNC(C)=O)cc3C2)c1
6. CCOc1ccc(S(=O)(=O)NCCCc2ccc(N(C)C)cc2)cc1C
7. CC(CN1CCCC1=O)NC(=O)c1cc(Cl)c2c(c1)OCO2 (centres undefined)

Ans.
["6.32%", "-1.32%", "-3.03%", "3.14%", "-1.03%", "0.279%", "-10.4%"]

Hi! Can you tell me cytotoxicity at 10 µM for each of these compounds?
1. CCCN(CCn1c(=O)oc2ccccc21)CC1CC1
2. COCCc1noc(C2CCN(S(=O)(=O)c3cccs3)CC2)n1
3. O=C(c1ccc2c(c1)OCO2)N1C[C@@H](CN2CCCCC2)[C@@H](CO)C1
4. CCOCCCC(=O)N(C)C(c1cccc(F)c1)c1ccccn1 (centres undefined)

Ans.
1.78%
7.51%
-4.06%
-10.2%

Hi! Can you tell me cytotoxicity at 10 µM for each of these compounds?
1. Cc1nc(C2CCCN2Cc2ccn(C)c(=O)c2)no1 (centres undefined)
2. O=C(C1CC1)N1C[C@H]2CCCN(S(=O)(=O)c3ccc(Cl)s3)[C@H]2C1
3. CS(=O)(=O)C1CCN(S(=O)(=O)Cc2cccc(F)c2)CC1
4. COc1cccc(CN2C[C@@H]3COC[C@]3(COCc3ccncc3)C2)c1
5. Cc1nccc(CN2CCC(c3nnsc3S(C)(=O)=O)CC2)n1

Ans.
["-12.9%", "8.26%", "-19.1%", "3.52%", "2.86%"]

###

Provide the recorded cytotoxicity at 10 µM for the entries that follow.
Assay: Toxicity liver stage against HepG2, at 10uM
Format: cell-based
Set-up: test concentration 10 uM, cell line HepG2-A16-CD81EGFP
Details: human, HepG2-A16-CD81EGFP cells; read-out: INHIBITION
Answers are plain numbers, in %.

These recorded examples may help you get a feel for the data.
{"COMPOUND": "Cc1ccc(CN2CCN(C3CCSCC3)CC2CCO)o1 (centres undefined)", "REPORTED MEASUREMENT": -3.96}
{"COMPOUND": "CCc1ncc2c(n1)CN(CC1CCCCO1)CC2 (centres undefined)", "REPORTED MEASUREMENT": -21.1}
{"COMPOUND": "Cc1nnc(C[C@@H]2COC[C@H]3CN(C(=O)c4ccco4)C[C@@H]23)o1", "REPORTED MEASUREMENT": -8.75}

Hi! Can you tell me cytotoxicity at 10 µM for each of these compounds?
1. CN1[C@@H]2CC[C@H]1CN(C(=O)c1nnc3n1CCCC3)CC2
2. Cc1ccccc1CN(C)CC(O)COCc1ccccc1Cl (centres undefined)
3. CS(=O)(=O)CCC(=O)NC1CC(c2cccc(Cl)c2)C1 (centres undefined)

Ans.
-10.6
8.49
1.36

Hi! Can you tell me cytotoxicity at 10 µM for each of these compounds?
1. O=C(c1cc(CC2(NCC3CCCCC3)COC2)no1)N1CCCCC1
2. COc1cc(F)ccc1-c1cnc(N)cn1
3. Cc1nnc(-c2cccc(N3CCC(NC4CCSC4)CC3)c2)s1 (centres undefined)
4. CC(CCc1ccc(O)cc1)NC1CCN(S(C)(=O)=O)CC1 (centres undefined)
5. CNc1ncc(CN(C)C(=O)CCc2cc3n(n2)CCCNC3)cn1
6. COc1ccc(CC(=O)N2CCN(Cc3ccco3)C[C@@H]2C)cc1OC

Ans.
5.35
-11.4
0.276
1.46
-13.5
3.88

Hi! Can you tell me cytotoxicity at 10 µM for each of these compounds?
1. CSCc1cc(F)ccc1CNC(=O)N1CCC(CO)CC1
2. CC1CCN(S(=O)(=O)N2CCCC(c3cccc(C(=O)O)c3)C2)CC1 (centres undefined)
3. CCn1ncnc1C(NC(=O)CC1CCN(C(C)C)CC1)C1CC1 (centres undefined)
4. Cc1ccc(-c2nc(CC(=O)NCC3CCCN(C(C)C)C3)cs2)o1 (centres undefined)

Ans.
1: 1.82; 2: -13.3; 3: 8.6; 4: -53.2
